Tested on: OVCAR-8 ovarian
assaySummary: NCI-60 one-dose screen, 48 h
details: 10 µM unless noted
Compounds without any hit were thinned out: in the full panel of roughly 83,000, 20% have a hit. Activity calls are given as the source filed them. Rule for the calls: active = growth percent below 10; inactive = the rest.
Outcomes: active, inactive

# molecule, classLabel
rows = [
    ("O=C(OC(CO)C(=O)NC12CC3CC(CC(C3)C1)C2)c1ccc(Cl)cc1 (stereo unspecified)", "inactive"),
    ("CCN1C(=O)N(CC)C2C1NN=c1s/c(=C\\c3ccccc3F)c(=O)n12 (stereo unspecified)", "active"),
    ("N#CSCC1CC(O)(c2ccccc2)CC(c2ccc(F)cc2)O1 (stereo unspecified)", "inactive"),
    ("O=C1/C(=C/c2ccccc2Br)COc2ccc(O)cc21", "inactive"),
    ("CC/C(=C(/c1ccc(Cl)cc1)c1ccc(OCCN2CCCCC2)cc1)c1ccc(OC)cc1", "inactive"),
    ("NS(=O)(=O)c1ccccc1NC(=O)Nc1nc2ccccc2s1", "inactive"),
    ("CCOCCNC1=C(Cl)C(=O)c2ccccc2C1=O", "inactive"),
    ("Cc1c(O)cc(-c2cnc(Nc3ccccc3)s2)c(O)c1C", "inactive"),
    ("COc1cc2c(cc1OC)C(C)N(S(N)(=O)=O)CC2 (stereo unspecified)", "inactive"),
    ("COc1ccc(C/C(C)=C(\\c2ccc(Cl)cc2)c2ccc(OCCN3CCCCC3)cc2)cc1", "inactive"),
    ("NNc1nc(-c2cccnc2)nc2c1sc(=S)n2-c1ccccc1", "inactive"),
]
